Please respond with reported pEC50 for every item in the list.
Tested on: EV-D68 US/KY/14-18953 virus
EXPERIMENT_DESCRIPTION: CPE assay, EV-D68 US/KY/14-18953 in RD cells
Format: cell-based, Enterovirus D68 (EV-D68)
CONDITION_SUMMARY: EV-D68 US/KY/14-18953, RD cells, CPE assay; read-out: EC50
Numbers only, as −log10 of the molar value.

The following compounds have reported results that may help.
# COMPOUND, OBSERVED_MEASUREMENT
records = [
    ("CN(C)CCNC(=O)c1cc(-c2ccc(F)cc2)nc2ccccc12 [drawing 185]", 7.00),
    ("CN(C)CCNC(=O)c1cc(-c2ccccc2)nc2ccccc12 [drawing 128]", 6.40),
    ("CNCCNC(=O)c1cc(-c2cccs2)nc2ccccc12 [drawing 192]", 6.52),
    ("CN(C)CCNC(=O)c1cc(-c2ccco2)nc2ccccc12", 5.96),
    ("NCCNC(=O)c1cc(-c2ccc(F)cc2)nc2ccccc12 [drawing 187]", 6.40),
]

Turning now to a further record.
What pEC50 value was documented for this compound, `NCCNC(=O)c1cc(-c2cccs2)nc2ccccc12` ?
6.40

---

Tested on: A172 cells
EXPERIMENT_DESCRIPTION: Cytotoxicity in A172 cells
So I've got a bunch of compounds here, and I need their CC50 values.

Here's what some known entries look like.
# COMPOUND, CC50
data = [
    ("CN(C)CCNC(=O)c1cc(-c2cccs2)nc2ccccc12 [drawing 133]", "73.8 µM"),
    ("O=C(NCCN1CCCC1)c1cc(-c2cccs2)nc2ccccc12 [drawing 134]", "65.4 µM"),
    ("CN(C)CCNC(=O)c1cc(-c2ccccc2)nc2ccccc12 [drawing 132]", "88.4 µM"),
]

Kindly consider the entry below.
Need CC50 of CCCCOc1cc(C(=O)NCCN(CC)CC)c2ccccc2n1 [drawing 131] , thanks.
> 30 µM

---

Test system: EV-D68 US/KY/14-18953 virus
EXPERIMENT_DESCRIPTION: CPE assay, EV-D68 US/KY/14-18953 in RD cells
Assay type: cell-based, Enterovirus D68 (EV-D68)
CONDITION_SUMMARY: Enterovirus D, EVD68, RD, EV-D68 US/KY/14-18953, RD cells, CPE assay; read-out: EC50
ASSAY_METRIC: pEC50
Answers are plain numbers, as −log10 of the molar value.

Known pEC50 results, listed for orientation:
# COMPOUND, pEC50
measured = [
    ("O=C(NC1CNC1)c1cc(-c2ccccc2)nc2ccccc12", 5.38),
    ("O=C(NCC1CNC1)c1cc(-c2ccc(F)cc2)nc2ccccc12", 5.92),
]

Could you tell me pEC50 for each of these compounds? They are listed below.
1. NCCNC(=O)c1cc(-c2ccco2)nc2c(Cl)cccc12
2. CNCCNC(=O)c1cc(-c2ccccc2)nc2ccccc12
3. CC(CN)NC(=O)c1cc(-c2ccccc2)nc2ccccc12 (stereo not drawn)
4. O=C(NCC1CNC1)c1cc(-c2ccco2)nc2ccccc12

1: 6.00; 2: 6.05; 3: 5.92; 4: 4.94

---

EXPERIMENT_DESCRIPTION: Cytotoxicity, neutral red method, RD cells
CONDITION_SUMMARY: human, RD (rhabdomyosarcoma) cells
ASSAY_METRIC: CC50 at 3 days (µM)
Answers are plain numbers, in µM.

# COMPOUND, U, CC50 at 3 days
rows = [
    ("O=C(NC1CNC1)c1cc(-c2ccc(F)cc2)nc2ccccc12", "µM", 46.7),
    ("[2H]c1c([2H])c([2H])c(-c2cc(C(=O)NCCN)c3ccccc3n2)c([2H])c1[2H]", "µM", 100),
]

Field: CC50 at 3 days. Fill in for each record below.
1. CC(CN)NC(=O)c1cc(-c2cccs2)nc2ccccc12 (stereo not shown)
2. O=C(NC1CNC1)c1cc(-c2ccco2)nc2ccccc12
3. O=C(NCC1(O)CNC1)c1cc(-c2ccccc2)nc2ccccc12

1. 23.8
2. 161
3. 82.2

Give me CC50 at 3 days for each of these compounds, listed below.
1. CN(C)CCNC(=O)c1cc(-c2c(F)cc(F)cc2F)nc2ccccc12
2. O=C(NCC1CNC1)c1cc(-c2ccc(F)cc2)nc2ccccc12
3. [2H]c1c([2H])c([2H])c(-c2cc(C(=O)NCCNC)c3ccccc3n2)c([2H])c1[2H]
4. NCCCNC(=O)c1cc(-c2ccccc2)nc2ccccc12
5. NCCNC(=O)c1cc(-c2ccco2)nc2c(Cl)cccc12
6. CC1(CNC(=O)c2cc(-c3ccccc3)nc3ccccc23)CNC1
7. CN1CC(NC(=O)c2cc(-c3cccs3)nc3ccccc23)C1

1: 39.2; 2: 50.6; 3: 101; 4: 168; 5: 50.5; 6: 49.5; 7: 42.6

State the recorded CC50 at 3 days for every item in the following list.
1. [2H]c1c([2H])c([2H])c(-c2cc(C(=O)NCC3CNC3)c3ccccc3n2)c([2H])c1[2H]
2. CN(C)CCNC(=O)c1cc(-c2c(F)cccc2F)nc2ccccc12
3. NCCNC(=O)c1cc(-c2ccccc2)nc2ccccc12

[188, 93, 44.9]
